target: UniProtKB O35678
Sequence (O35678 whole entry): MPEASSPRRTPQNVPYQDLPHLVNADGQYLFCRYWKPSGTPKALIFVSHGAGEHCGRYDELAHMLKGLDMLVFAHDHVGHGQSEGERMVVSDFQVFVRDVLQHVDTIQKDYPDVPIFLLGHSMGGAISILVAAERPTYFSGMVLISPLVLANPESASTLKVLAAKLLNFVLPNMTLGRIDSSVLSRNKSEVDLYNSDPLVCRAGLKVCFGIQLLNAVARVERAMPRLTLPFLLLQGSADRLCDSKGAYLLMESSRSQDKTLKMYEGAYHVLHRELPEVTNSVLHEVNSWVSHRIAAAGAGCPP
OBSERVABLE: pIC50
For clarity, pIC50 is expressed as the negative log10 of concentration in mol/L.

Quote UniProtKB O35678 pIC50 for entry COC(=O)[C@]1(C)CC[C@]2(C)CC[C@]3(C)C4=CC=C5C(=CC(=O)C(O)=C5C)[C@]4(C)CC[C@@]3(C)[C@@H]2C1 .
6.22
